Tested system: Cannabinoid receptor 2 (Rattus norvegicus, UniProt Q9QZN9)
Sequence (Q9QZN9 whole entry): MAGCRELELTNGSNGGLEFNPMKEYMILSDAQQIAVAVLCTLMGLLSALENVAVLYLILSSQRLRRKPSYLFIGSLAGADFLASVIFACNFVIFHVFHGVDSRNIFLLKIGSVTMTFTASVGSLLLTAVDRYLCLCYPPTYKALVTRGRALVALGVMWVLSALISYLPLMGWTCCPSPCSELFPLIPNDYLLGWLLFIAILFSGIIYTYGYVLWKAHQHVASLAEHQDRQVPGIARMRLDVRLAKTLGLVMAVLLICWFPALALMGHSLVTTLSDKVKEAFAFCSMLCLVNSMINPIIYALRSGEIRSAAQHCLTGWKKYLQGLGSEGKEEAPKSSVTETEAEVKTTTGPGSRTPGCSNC
Assay: Agonist activity at rat recombinant CB2 receptor expressed in CHO-K1 cells assessed as inhibition of forskolin-stimulated intracellular cAMP level
Measured metric: EC50 (nM)
A number alone suffices; assume nM.

Input smiles: CC(C)(C)c1ncc(OCCCc2nc(-c3ccc(F)cc3Cl)no2)cn1
Unit: nM
EC50: 16
//
Input smiles: CCn1c2ccccc2c2cc(NC(=O)CCn3nnc(-c4ccccc4F)n3)ccc21
Unit: nM
EC50: 97
//
Input smiles: O=C(CCc1nc(-c2ccc(F)cc2Cl)no1)Nc1nc2ccc(OC(F)(F)F)cc2s1
Unit: nM
EC50: 6.9

Looking up N#Cc1cc(NCCCc2nc(-c3ccc(F)cc3Cl)no2)cnc1OCC(F)(F)F , I see its EC50 listed as 130

Looking up CCn1c2ccccc2c2cc(NC(=O)CCc3nc(-c4ccc(F)cc4C)no3)ccc21 , I see its EC50 listed as 0.27

Looking up Fc1ccc(-c2noc(CCCNc3cnc4ccc(Cl)cc4c3)n2)c(Cl)c1 , I see its EC50 listed as 1.3

----------
Tested system: Cannabinoid receptor 2 (Homo sapiens, UniProt P34972)
Sequence (P34972 whole entry): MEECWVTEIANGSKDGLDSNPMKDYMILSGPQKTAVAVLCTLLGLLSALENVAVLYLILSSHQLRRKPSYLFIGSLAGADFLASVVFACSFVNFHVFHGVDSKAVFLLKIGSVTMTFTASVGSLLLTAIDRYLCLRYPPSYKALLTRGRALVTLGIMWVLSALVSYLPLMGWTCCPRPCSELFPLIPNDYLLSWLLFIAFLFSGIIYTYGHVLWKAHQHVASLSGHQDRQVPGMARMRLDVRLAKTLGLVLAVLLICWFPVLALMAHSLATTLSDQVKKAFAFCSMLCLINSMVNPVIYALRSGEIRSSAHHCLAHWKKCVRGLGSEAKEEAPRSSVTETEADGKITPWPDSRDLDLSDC
Assay: Agonist activity at human recombinant CB2 receptor expressed in CHO-K1 cells assessed as inhibition of forskolin-stimulated intracellular cAMP level relative to CP-55940
Type: functional, cell-based
Measured metric: Emax (%)
A number alone suffices; assume %.

Assay Cannabinoid receptor 2 (Homo sapiens, UniProt P34972), sample CCn1c2ccccc2c2cc(NC(=O)CCc3nc(-c4ccccc4F)no3)ccc21 , Emax read: 93

Assay Cannabinoid receptor 2 (Homo sapiens, UniProt P34972), sample CCn1c2ccccc2c2cc(NC(=O)CCn3nnc(-c4ccccc4F)n3)ccc21 , Emax read: 88

----------
Tested system: Cannabinoid receptor 2 (Homo sapiens, UniProt P34972)
Assay: Agonist activity at human recombinant CB2 receptor expressed in CHO-K1 cells assessed as inhibition of forskolin-stimulated intracellular cAMP level
Type: functional, cell-based
Measured metric: pEC50
Hey, just a heads up that pEC50 is the negative log base 10 of the concentration in molar.

Consider the reported pEC50 for these compounds:
Input smiles: CC(C)(C)c1ncc(NC(=O)CCc2nc(-c3ccc(F)cc3Cl)no2)cn1
Measured result: 8.54
--
Input smiles: CC(C)(C)c1cc(NCCCc2nc(-c3ccc(F)cc3Cl)no2)no1
Measured result: 6.89
--
Input smiles: O=C(CCc1nc(-c2ccc(F)cc2Cl)no1)Nc1cnc2ccc(Cl)cc2c1
Measured result: 9.30

Assay Cannabinoid receptor 2 (Homo sapiens, UniProt P34972), sample Fc1ccc(-c2noc(CCCNc3nc4ccc(Cl)cc4s3)n2)c(Cl)c1 , pEC50 read: 6.96

Assay Cannabinoid receptor 2 (Homo sapiens, UniProt P34972), sample CCn1c2ccccc2c2cc(NC(=O)CCc3nc(-c4ccc(F)cc4C)no3)ccc21 , pEC50 read: 9.33

----------
Tested system: Cannabinoid receptor 1 (Rattus norvegicus)
Sequence (P20272 whole entry): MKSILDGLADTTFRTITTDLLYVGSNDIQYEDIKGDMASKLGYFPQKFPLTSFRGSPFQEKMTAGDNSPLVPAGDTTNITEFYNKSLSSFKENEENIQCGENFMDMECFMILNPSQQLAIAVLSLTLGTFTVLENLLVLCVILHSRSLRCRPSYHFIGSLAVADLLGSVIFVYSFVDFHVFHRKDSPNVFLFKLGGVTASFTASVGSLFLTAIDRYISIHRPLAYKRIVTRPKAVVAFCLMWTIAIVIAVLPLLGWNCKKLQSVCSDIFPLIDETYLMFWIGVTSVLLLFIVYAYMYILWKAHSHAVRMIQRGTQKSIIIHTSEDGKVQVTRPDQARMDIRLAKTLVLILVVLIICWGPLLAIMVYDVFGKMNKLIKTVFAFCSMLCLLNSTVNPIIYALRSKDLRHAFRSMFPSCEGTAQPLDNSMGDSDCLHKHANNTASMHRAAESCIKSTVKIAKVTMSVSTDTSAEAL
Assay: Agonist activity at rat recombinant CB1 receptor expressed in CHO-K1 cells assessed as inhibition of forskolin-stimulated intracellular cAMP level
Measured metric: pEC50
Hey, just a heads up that pEC50 is the negative log base 10 of the concentration in molar.

Input smiles: CC(C)(C)c1ncc(NC(=O)CCc2nc(-c3ccc(F)cc3Cl)no2)cn1
pEC50: 6.24

Looking up CCn1c2ccccc2c2cc(NC(=O)CCc3nc(-c4ccc(F)cc4)no3)ccc21 , I see its pEC50 listed as 6.19

Looking up CCn1c2ccccc2c2cc(NC(=O)CCc3nc(-c4ccc(F)cc4C)no3)ccc21 , I see its pEC50 listed as 6.55

Looking up CC(C)(C)c1ncc(OCCCc2nc(-c3ccc(F)cc3Cl)no2)cn1 , I see its pEC50 listed as 6.27

Looking up CCn1c2ccccc2c2cc(NC(=O)CCc3nc(C4CCOCC4)no3)ccc21 , I see its pEC50 listed as 6.82

Looking up CCn1c2ccccc2c2cc(NC(=O)CCc3nc(-c4ccc(F)cc4C#N)no3)ccc21 , I see its pEC50 listed as 6.62

Looking up Fc1ccc(-c2noc(CCCNc3cnc4ccc(Cl)cc4c3)n2)c(Cl)c1 , I see its pEC50 listed as 7.11

Looking up Fc1ccc(-c2noc(CCCOc3cnc4ccc(Cl)cc4c3)n2)c(Cl)c1 , I see its pEC50 listed as 7.08

Looking up O=C(CCc1nc(-c2ccc(F)cc2Cl)no1)Nc1cnc2ccc(Cl)cc2c1 , I see its pEC50 listed as 6.89

Looking up O=C(CCc1nc(-c2ccc(F)cc2Cl)no1)Nc1cnc2ncc(Cl)cc2c1 , I see its pEC50 listed as 6.66

----------
Tested system: Cannabinoid receptor 1 (Homo sapiens, UniProt P21554)
Sequence (P21554 whole entry): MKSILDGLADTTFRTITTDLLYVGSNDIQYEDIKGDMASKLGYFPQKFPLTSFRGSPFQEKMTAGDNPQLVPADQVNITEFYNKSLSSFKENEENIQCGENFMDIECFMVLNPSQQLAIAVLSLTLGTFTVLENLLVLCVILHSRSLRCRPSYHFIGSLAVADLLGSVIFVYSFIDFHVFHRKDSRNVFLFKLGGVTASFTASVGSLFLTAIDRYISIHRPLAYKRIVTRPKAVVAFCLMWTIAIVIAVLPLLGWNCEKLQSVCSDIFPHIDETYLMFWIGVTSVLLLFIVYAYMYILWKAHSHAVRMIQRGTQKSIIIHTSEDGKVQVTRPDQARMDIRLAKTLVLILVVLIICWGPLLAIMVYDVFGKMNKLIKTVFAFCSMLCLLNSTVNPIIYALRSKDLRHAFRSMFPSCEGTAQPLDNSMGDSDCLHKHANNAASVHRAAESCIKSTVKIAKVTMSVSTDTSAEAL
Assay: Agonist activity at human recombinant CB1 receptor expressed in CHO-K1 cells assessed as inhibition of forskolin-stimulated intracellular cAMP level relative to CP-55940
Assay type: functional, cell-based
Label rule, in plain words: Emax of 30% and up is yes, under 30% is no.

Input smiles: O=C(CCc1nc(-c2ccc(F)cc2Cl)no1)Nc1cnc2ccc(Cl)cc2c1
Class name: yes

Hi team, for CCn1c2ccccc2c2cc(NC(=O)CCc3nc(-c4ccc(F)cc4C#N)no3)ccc21 , is the recorded Emax at or above 30%?
no

Hi team, for Fc1ccc(-c2noc(CCCNc3cnc4ccc(Cl)cc4c3)n2)c(Cl)c1 , is the recorded Emax at or above 30%?
yes

Hi team, for Fc1ccc(-c2noc(CCCOc3cnc4ccc(Cl)cc4c3)n2)c(Cl)c1 , is the recorded Emax at or above 30%?
yes

Hi team, for CCn1c2ccccc2c2cc(NC(=O)CCc3nc(-c4ccc(F)cc4)no3)ccc21 , is the recorded Emax at or above 30%?
no

Hi team, for O=C(CCc1nc(-c2ccc(F)cc2Cl)no1)Nc1nnc(N2CCCCC2)s1 , is the recorded Emax at or above 30%?
yes

Hi team, for CC(C)(C)c1ncc(OCCCc2nc(-c3ccc(F)cc3Cl)no2)cn1 , is the recorded Emax at or above 30%?
yes

Hi team, for Fc1ccc(-c2noc(CCCNc3nc4ccc(Cl)cc4s3)n2)c(Cl)c1 , is the recorded Emax at or above 30%?
no

Hi team, for Fc1ccc(-c2noc(CCCNc3cnc4ccc(OC(F)(F)F)cc4c3)n2)c(Cl)c1 , is the recorded Emax at or above 30%?
yes

Hi team, for CC(C)(C)c1cc(NC(=O)CCc2nc(-c3ccc(F)cc3Cl)no2)no1 , is the recorded Emax at or above 30%?
yes

Hi team, for O=C(CCc1nc(-c2ccc(F)cc2Cl)no1)Nc1nc2ccc(OC(F)(F)F)cc2s1 , is the recorded Emax at or above 30%?
yes

Hi team, for CCn1c2ccccc2c2cc(NC(=O)CCc3nc(-c4ccc(F)cc4Cl)no3)ccc21 , is the recorded Emax at or above 30%?
no

Hi team, for CCn1c2ccccc2c2cc(NC(=O)CCc3nc(C4CCOCC4)no3)ccc21 , is the recorded Emax at or above 30%?
no

----------
Tested system: Cannabinoid receptor 2 (Homo sapiens, UniProt P34972)
Measured metric: Ki (nM)
A number alone suffices; assume nM.

Looking up Cc1ccc2c(=O)c(C(=O)NC3CCCCC3)cn(Cc3ccc(F)cc3)c2n1 , I see its Ki listed as 5.5

----------
Reported EC50 by item:
Tested system: UniProt:P21554
Assay: Agonist activity at human CB1 receptor expressed in Sf9 cells by GTP-europium binding assay
A number alone suffices; assume µM.

Input smiles: CC(C)(C)c1ncc(OCCCc2nc(-c3ccc(F)cc3Cl)no2)cn1
Tested system: UniProt:P21554
Measured result: 0.61
--
Input smiles: O=C(CCc1nc(-c2ccc(F)cc2Cl)no1)Nc1nnc(N2CCCCC2)s1
Tested system: UniProt:P21554
Measured result: 0.211
--
Input smiles: CC(C)(C)c1cc(NC(=O)CCc2nc(-c3ccc(F)cc3Cl)no2)no1
Tested system: UniProt:P21554
Measured result: 1.6
--
Input smiles: CCn1c2ccccc2c2cc(NC(=O)CCc3nc(-c4ccc(F)cc4)no3)ccc21
Tested system: UniProt:P21554
Measured result: 1.2
--
Input smiles: CCn1c2ccccc2c2cc(NC(=O)CCc3nc(-c4ccc(F)cc4Cl)no3)ccc21
Tested system: UniProt:P21554
Measured result: 1.2
--
Input smiles: Fc1ccc(-c2noc(CCCOc3cnc4ccc(Cl)cc4c3)n2)c(Cl)c1
Tested system: UniProt:P21554
Measured result: 1.1
--
Input smiles: Fc1ccc(-c2noc(CCCNc3nc4ccc(Cl)cc4s3)n2)c(Cl)c1
Tested system: UniProt:P21554
Measured result: 3.3

Please find the next molecule below.
Looking up Fc1ccc(-c2noc(CCCNc3cnc4ccc(Cl)cc4c3)n2)c(Cl)c1 , I see its EC50 listed as 0.22

Sourced from ChEMBL document CHEMBL1156631
